Taken from paper PMC5261807.

# System: T1, Bdf1 bromodomain 2 (GST-tagged, WT) (Saccharomyces cerevisiae (strain ATCC …, UniProt P35817))
# T1 chain: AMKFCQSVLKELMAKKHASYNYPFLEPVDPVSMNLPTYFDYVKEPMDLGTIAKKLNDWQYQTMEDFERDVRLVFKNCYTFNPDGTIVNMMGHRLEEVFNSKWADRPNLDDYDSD
# Measurement Protocol: histone peptide array probed with recombinant GST-bromodomain, signal normalised to myc peptide control
Non-standard residues stand in square brackets, D forms with d. No end group written: not given here. Arg(Me2a) = CN(C)C(=N)NCCC[C@H](N)C(=O)O; Lys(Me2) = CN(C)CCCC[C@H](N)C(=O)O; pS = N[C@@H](COP(=O)(O)O)C(=O)O; Lys(Me) = CNCCCC[C@H](N)C(=O)O
Property Label: binding score
Output: the number by itself.

1. PDPAK(Ac)SAPAPKK(Ac)GSK(Ac)KAVT
0.329
2. SGRGKGGKGLGKGGAKRHR (pS G Rme2a G Kac G G K G L G K G G A K R H R)
0.0674
3. SGRGKGGKGLGKGGAKRHR (S G R G K G G Kac G L G Kac G G A Kac R H R)
0.448
4. SGRGKGGKGLGKGGAKRHR (pS G Rme2a G K G G K G L G K G G A K R H R)
0

Prompt line: Item ARTKQTARKSTGGKAPRKQ (A R T K Q T A R Kme1 S T G G K A P R K Q) has what recorded binding score?
Response line: 0.00482

Prompt line: Item PRKQLATKAAR[Lys(Me2)][pS]APATGG has what recorded binding score?
Response line: 0

Prompt line: Item SGRGKGGKGLGKGGAKRHR (S G Rme2s G K G G Kac G L G K G G A K R H R) has what recorded binding score?
Response line: 0.0294

Prompt line: Item ART[Lys(Me2)]QTA[Arg(Me2a)][Lys(Me)]STGGKAPRKQ has what recorded binding score?
Response line: 0
